All figures here come from PubChem BioAssay.

- Tested on: Lefty1
- measurementProtocol: Lefty1 binders on small-molecule microarrays, primary screen, biochemical, small-molecule microarray, 635/667 nm fluorescence (AID 1139)
- conditionDetails: small-molecule microarray binding, fluorescence 635/667; higher = more signal
I would appreciate it if you labelled entries rule met when composite z-score is 0.3 or higher, otherwise rule not met.

- molecule: "CN1C(=O)C2C(C1=O)C1C=C(CCCO)C2C(c2ccc(CN3CCCC3)cc2)N1C (stereo not given)"
  className: "rule not met"
- molecule: "CCOC(=O)C[C@H]1[C@H](OC(=O)c2cc3ccccc3oc2=O)[C@@H](NC(=O)c2ccc3ccccc3n2)c2cc(OCCCO)ccc2N1C(=O)c1ccccc1"
  className: "rule met"
- molecule: "C[C@@H]1C=CCC(=O)OC[C@H](C)C(=O)OC[C@H]2O[C@H]1C=C[C@H]2O"
  className: "rule met"

Would you kindly look at the next entry?
Given CCN1C(=O)[C@H]2[C@H]3[C@H](O)[C@H](O)CC(=NOC[C@@H](C)[C@H](OCc4ccccc4)C(C)C)[C@@H]3CC[C@H]2C1=O , state whether its composite z-score is at least 0.3. rule not met

----------
- Test system: Sam68 (KHDRBS1)
- measurementProtocol: Sam68 small-molecule binders, primary screen, biochemical, small-molecule microarray, 635 nm fluorescence (AID 1125);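 note: score merges 667 nm channel intensity with signal to noise over triplicate slides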
- conditionDetails: small-molecule microarray binding, higher = more signal
Assign MET whenever composite z-score does not fall below 0.5; assign NOT MET whenever it does.

For orientation, consider the following solved cases.
- molecularString: "CCOC(=O)NN=C1C[C@@H](O)[C@@H](O)[C@@H]2[C@@H]3C(=O)N(C4CCCCC4)C(=O)[C@@H]3CC[C@H]12"
  className: "NOT MET"
- molecularString: "COC(=O)CC=C[C@@H](C)[C@H](OC)c1ccccc1Br"
  className: "NOT MET"
- molecularString: "CC(CCN1CCc2nc(-c3ccccc3)c(-c3ccccc3)cc2C1)=NOC[C@@H](C)[C@H](OCc1ccccc1)C(C)C"
  className: "NOT MET"

Shifting focus to the molecule that follows.
Does the reported composite z-score for COCCOC(=O)N1C(=O)[C@@]2(c3cc(C#CCNC(N)=O)ccc31)[C@H](c1ccc(O)cc1)N1[C@H](c3ccccc3)[C@H](c3ccccc3)OC(=O)[C@H]1[C@@H]2C(=O)N1CCCCCCC1 fall at or above the 0.5 mark? MET

----------
- measurementProtocol: small-molecule binders of probe aNOTCH2, primary screen, biochemical, small-molecule microarray, 635/667 nm fluorescence (AID 1121);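 note: score merges feature fluorescence read at 667 nm with its signal to noise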
- conditionDetails: higher = more signal
Hi, to clarify the labels: Fulfilled covers composite z-score from -0.1 upward, Not fulfilled covers anything below -0.1.

- molecularString: "CO[C@H]([C@@H](C)[C@H](OC)c1ccccc1)[C@H](C)[C@@H](OC)[C@H](C)C(C)=O"
  className: "Fulfilled"
- molecularString: "C[C@H](c1ccccc1)N1C(=O)[C@H]2[C@H]3[C@H](O)[C@H](O)CC(=O)[C@@H]3CC[C@H]2C1=O"
  className: "Not fulfilled"
- molecularString: "CO[C@H]1O[C@H](CO)[C@@H](OC(=O)Nc2ccc3c(c2)OCO3)[C@H](OC(=O)Nc2ccccc2-c2ccccc2)[C@@H]1OC(=O)Nc1ccccc1-c1ccccc1"
  className: "Fulfilled"
- molecularString: "C[N+](C)(C)CCCCCCNC(=O)[C@@H]1C[C@@H]2C(=O)N3CCC[C@H]3C(=O)N2[C@@H]1c1cccc(OCCO)c1"
  className: "Not fulfilled"
- molecularString: "CCCC[C@@H](O)C1=C(C)C[C@H]2C(=O)N(Cc3ccccc3)C(=O)[C@H]2[C@H]1CO"
  className: "Not fulfilled"

Identify whether the reported composite z-score of the following molecule is -0.1 or greater: CO[C@H]1COC(=O)[C@@H]2CCCN2C(=O)[C@@H](C)COC(=O)CC=C[C@@H]1C Fulfilled

Does CC(C)[C@@H](OCc1ccccc1)[C@H](C)C=NO[C@H](C)c1cn([C@H](CO)Cc2ccccc2)nn1 have a reported composite z-score of at least -0.1? Not fulfilled

Item CC(C)NC(=O)[C@@]1(c2ccc([N+](=O)[O-])cc2)CC(=O)N(CC23CC4CC(CC(C4)C2)C3)[C@@H]1c1ccc(CO)cc1I with composite z-score of -0.1 or above? Fulfilled

Item CN(C)C(=O)[C@@]1(Cc2ccccc2)N=C(c2ccc(OCCCO)cc2)O[C@H]1c1ccccc1CN=[N+]=[N-] with composite z-score of -0.1 or above? Fulfilled

Is the recorded value of composite z-score equal to or greater than -0.1 for this molecule? CCCC[C@H]1OB(O)C[C@H]2C1=C(C)C[C@H]1C(=O)N(C)C(=O)[C@H]12 Not fulfilled

Check if composite z-score >= -0.1 (inclusive). Item: Cc1cc2c(c(=O)o1)[C@H](O)[C@H]1O[C@H]1C2=O Fulfilled

Determine whether measured composite z-score meets or exceeds -0.1 for C=CC[C@@H]1C=C[C@H](ON=C2c3cc(OC)ccc3O[C@H](c3cccc(OC)c3)[C@H]2O)[C@@H](CO)O1 Fulfilled

Given C/C=C\[C@@H](NCc1ccccc1Br)[C@@H](O)Cc1ccccc1 , state whether its composite z-score is at least -0.1. Not fulfilled

Test whether the molecule O=C1C2=CC[C@H]3C(=O)N(Cc4ccc5c(c4)OCO5)C(=O)[C@H]3[C@H]2[C@H](O)[C@@H]2O[C@H]12 records composite z-score of -0.1 or higher. Not fulfilled

Check if composite z-score >= -0.1 (inclusive). Item: COc1ccc(COC(=O)NN=C2C[C@@H](O)[C@@H](O)[C@@H]3[C@@H]4C(=O)N(Cc5ccc6c(c5)OCO6)C(=O)[C@@H]4CC[C@@H]23)cc1 Fulfilled

Textbook exercise: given the entry C[C@@H](c1ccccc1)N1C(=O)[C@H]2[C@H]3[C@H](O)[C@H](O)CC(=NOC[C@@H](O)COCc4ccco4)[C@@H]3CC[C@H]2C1=O , state whether its composite z-score is greater than or equal to -0.1. Not fulfilled
